All figures here come from ChEMBL document CHEMBL1201862.

system: SNB-78; assay: NCI tumour cell line growth inhibition, 48 h
The source made the active and inactive calls. No stated cut-off is given here; in the data, active = GI50 up to about 1.1 µM and inactive = higher.
MEASURE: GI50

Below, each entry is followed by its recorded GI50 result.
{"columns": ["COMPOUND", "REPORTED MEASUREMENT"],
 "data": [
  ["N=C(N)N/N=C(/CC1OC(=O)c2ccccc21)c1ccc2ccccc2c1 (stereo not drawn)", "> 100 µM (inactive)"],
  ["CCCCCCC(=O)C/C(CCC(=O)N(Cc1ccccc1)Cc1ccccc1)=N\\Nc1ccc([N+](=O)[O-])cc1[N+](=O)[O-]", "> 100 µM (inactive)"],
  ["N#Cc1c(-c2ccco2)cc(-c2ccccc2)nc1O", "> 100 µM (inactive)"],
  ["N#C/N=C(/NCCc1c[nH]c2ccccc12)Oc1ccccc1", "98.9 µM (inactive)"]
]}

Form field GI50 for item "COc1cc(/C=N\c2ccc(C(C)C)cc2)cc(OC)c1OC" on SNB-78: > 100 µM (inactive)

Form field GI50 for item COC1(OC)CC2C=C(S(=O)(=O)c3ccccc3)C1N(Cc1ccccc1)C2=O (stereo not drawn) on SNB-78: 21.2 µM (inactive)

Form field GI50 for item Brc1cccc(C2SCc3nc4ccccc4n32)c1 (stereo not drawn) on SNB-78: 28.3 µM (inactive)

Form field GI50 for item "CCCCCCCCCCCC(=O)c1c(O)cccc1O" on SNB-78: 21.8 µM (inactive)

###

tested on: RPMI-8226; experiment: NCI tumour cell line growth inhibition, 48 h
Calls of active or inactive are those of the source. Cut-off read from the data, not from the text of the source: active = GI50 up to about 1.1 µM and inactive = higher.
This listing pairs molecules with measured GI50.

Below, each entry is followed by its recorded GI50 result.
{"columns": ["MOLECULE", "MEASURE", "REPORTED MEASUREMENT"],
 "data": [
  ["O=C(Cc1nc2ccccc2o1)C(=O)Nc1cccc(C(F)(F)F)c1", "GI50", "> 100 µM (inactive)"],
  ["CO[C@@]12C[C@@H](CNC(=O)c3cc(Br)c[nH]3)O[C@@H]1NC(=O)N2", "GI50", "> 100 µM (inactive)"],
  ["CO[C@H](C(=O)O[C@H]1C(=O)N2CC[C@@H]3CCC[C@H]1C32C)c1ccccc1 (stereo partly drawn)", "GI50", "> 100 µM (inactive)"],
  ["CN(C)c1ccc(/C=C/C(=O)c2cc(C(C)(C)C)c(O)c(C(C)(C)C)c2)cc1", "GI50", "1.55 µM (inactive)"]
]}

Value of measured GI50 for the entry "O=S(=O)(O)c1cc(/N=[N+](\[O-])c2ccc(/N=N/c3ccccc3)cc2S(=O)(=O)O)ccc1/C=C/c1ccc(/N=[N+](\[O-])c2ccc(/N=N/c3ccccc3)cc2S(=O)(=O)O)cc1S(=O)(=O)O" : > 100 µM (inactive)

Value of measured GI50 for the entry "Cc1c(C(=O)Nc2ccc(Cl)c(C(F)(F)F)c2)oc2cc(O)ccc2/c1=N\NC(N)=S" : > 100 µM (inactive)

Value of measured GI50 for the entry "Cc1ccc2c(c1)nc(N)n[n+]2[O-]" : > 100 µM (inactive)

Value of measured GI50 for the entry CC1(C)C(CCO)CC1n1cc(I)c(=O)[nH]c1=O (stereo not drawn) : > 100 µM (inactive)

Value of measured GI50 for the entry "O=C1N/C(=N/N=C/c2ccccc2)N/C1=C\c1c[nH]c2ccccc12" : 7.52 µM (inactive)
